- Procedure Details: UV-Vis absorption spectra assay for iron chelation
- Format: physicochemical
- Condition: 300 μM compound and FeCl3; 300-700 nm; 1 h
Attribute Measured: absorption spectrum after addition of FeCl3

{"columns": ["Compound", "Test Result"],
 "data": [
  ["Cc1c(O)c(=O)ccn1C [DFP, deferiprone]", "shifted"],
  ["CCn1cc(C(=O)O)c(=O)c2cnc(N3CCNCC3)nc21 [Pipemidic acid]", "shifted"]
]}

====

- Procedure Details: Qualitative assay for antibiotic-Fe3+ coloured complexes
- Format: physicochemical
- Condition: stock antibiotic + FeCl3 final 10 μM; room temperature 1 h
Attribute Measured: colour change upon addition of FeCl3

{"columns": ["Compound", "Attribute Measured", "Test Result"],
 "data": [
  ["O=C(O)c1cn(C2CC2)c2cc(N3CCNCC3)c(F)cc2c1=O [CIP, ciprofloxacin]", "colour change upon addition of FeCl3", "formed orange complexes"],
  ["CCn1cc(C(=O)O)c(=O)c2cnc(N3CCNCC3)nc21 [Pipemidic acid]", "colour change upon addition of FeCl3", "formed orange complexes"]
]}
